Target: α1B (Cav2.2), β3 and α2δ subunits of the N-type calcium channel (stable HEK cell line) (Rattus norvegicus, UniProt Q02294)
Experiment: Calcium-dye indicator assay (FDSS, KCl depolarization)
Settings: calcium mobilization response to 50 mM KCl; six-point concentration-response
pIC50: −log10 of the molar value.
measured attribute: pIC50

mol: COc1ccccc1-n1nc(C2CC(C)(C)OC(C)(C)C2)cc1-c1ccc(N(C)C)nc1
pIC50: 8.46

A: COc1ccccc1-n1nc(C2CC(C)(C)OC(C)(C)C2)cc1-c1ccc(C)o1
B: COc1ccccc1-n1nc(C2CC(C)(C)OC(C)(C)C2)cc1C1=CCCC1
Given the listed records, identify the one among A and B with higher pIC50. // output: label of the selected item
A
(A: 7.77, B: 7.47)
